TEST_NAME: splicing luciferase reporter signal modulators, primary screen, spliceosome inhibition project, cell-based, HEK293, splice +/- reporter (AID 1101);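 also: HEK293 cells carrying a splicing-competent luciferase reporter gene; test concentration not given here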
ASSAY_CONDITIONS: luminescence, 24 h, higher = more signal, called active from +8 up or from −8 down
Assign Yes whenever z-score does not fall below -0.4; assign No whenever it does.

- COMPOUND: "O=C1CCCC=C1C(O)CCOC(c1ccccc1)(c1ccccc1)c1ccccc1 (configuration not stated)"
  CATEGORY: "Yes"
- COMPOUND: "C#CCCCON=C1C[C@@H](O)[C@@H](O)[C@@H]2[C@@H]3C(=O)N(c4ccc(F)cc4F)C(=O)[C@@H]3CC[C@@H]12"
  CATEGORY: "Yes"
- COMPOUND: "CO[C@H]1COC(=O)CC=C[C@H](C)COC(=O)[C@@H](C)NC(=O)CC=C[C@@H]1C"
  CATEGORY: "No"
- COMPOUND: "CO[C@@H]1COC(=O)CC=C[C@@H](C)[C@@H]2C=C[C@H](O)[C@@H](COC(=O)CC=C[C@H]1C)O2"
  CATEGORY: "Yes"
- COMPOUND: "COC(=O)CC=C[C@@H](C)[C@@H](C=NO[C@@H]1O[C@H](COC(C)=O)[C@@H](OC(C)=O)[C@H](OC(C)=O)[C@H]1OC(C)=O)OC"
  CATEGORY: "Yes"
- COMPOUND: "COC(=O)[C@@H]1CC[C@H](C)[C@@H](c2ccc(C)cc2)N1C(=O)c1ccc(C=NO[C@@H]2O[C@H](COC(C)=O)[C@@H](OC(C)=O)[C@H](OC(C)=O)[C@H]2OC(C)=O)cc1"
  CATEGORY: "No"
- COMPOUND: "CCO[C@H](c1cc(OC)cc([N+](=O)[O-])c1OC)[C@H](C)C=CCC(=O)OC"
  CATEGORY: "Yes"
